We begin with a simple list: items and their reported Test C disease control rating.
- System: Puccinia recondita f. sp. tritici
- method-summary: Test C: wheat leaf rust control on wheat seedlings
- Format: in vivo
- protocol-conditions: 50 ppm, sprayed to run-off on wheat seedlings, inoculated the following day; 100 = 100% disease control, 0 = no control
- From the text: General protocol for preparing test suspensions for Tests A-C: the test compounds were first dissolved in acetone in an amount equal to 3% of the final volume and then suspended at the desired concentration (in ppm) in acetone and purified water (50/50 mix by volume) containing 250 ppm of the surfactant PEG400 (polyhydric alcohol esters). The resulting test suspensions were then used in Tests A-C. The test solution was sprayed to the point of run-off on wheat seedlings. […]
quantity: Test C disease control rating (%)

1. COC(=O)c1ccc(NC(=O)OCCCc2ccc(-c3noc(C(F)(F)F)n3)cc2)cc1 ... 0
2. COC(=O)c1ccc(NC(=O)OCc2ccc(-c3noc(C(F)(F)F)n3)cc2)cc1 ... 41
3. CCOC(=O)c1ccc(NC(=O)OC(C)c2ccc(-c3noc(C(F)(F)F)n3)cc2)cc1 (centres unmarked) ... 79
4. CCOC(=O)NN=Cc1ccc(-c2noc(C(F)(F)F)n2)s1 ... 100
5. COC(=O)c1ccc(NC(=O)OCCc2ccc(-c3noc(C(F)(F)F)n3)cc2)cc1 ... 0
